- protocol_notes: Cytotoxicity against human 184B5 cells after 24 hrs by MTS assay
- Type: cell-based
property: CC50 at 24 h

compound: CCOC(=O)[C@]1(c2ccccc2)N=C(c2ccccc2)N(Cc2ccccc2)[C@@H]1c1ccco1 (racemic)
reported_measurement: > 10 µM

compound: CCOC(=O)[C@]1(c2ccccc2)N=C(c2ccccc2)N(Cc2ccc(F)cc2)[C@@H]1c1ccccc1 (racemic)
reported_measurement: > 10 µM

compound: CCOC(=O)[C@]1(c2ccccc2)N=C(c2ccccc2)N(Cc2ccc(Cl)cc2)[C@@H]1c1ccccc1 (racemic)
reported_measurement: > 10 µM
